Experiment: Int 1-4 plasma PK in the male cynomolgus monkey (study f)
Format: in vivo
Measurement Context: after iv Int 1-4 5 mg/kg (study f)
Observation Type: AUC(0-inf) (ng·h/mL)
# unit: ng·h/mL | format: bare number

Input line: What value of AUC(0-inf) has been reported for the following compound? COc1cc(OC)c2oc(COC(=O)Nc3ccn([C@@H]4O[C@H](CO)[C@@H](O)C4(F)F)c(=O)n3)cc2c1 [Int 1-4]
Output line: 5470

* * *

Experiment: Int 1-4 and gemcitabine comparative PK in male cynomolgus monkey (study g)
Assay type: in vivo
Measurement Context: plasma, male cynomolgus monkey, after iv Int 1-4 5 mg/kg (study g)
Observation Type: AUC(0-t) (ng·h/mL)
# unit: ng·h/mL | format: bare number

Input line: What value of AUC(0-t) has been reported for the following molecule? `COc1cc(OC)c2oc(COC(=O)Nc3ccn([C@@H]4O[C@H](CO)[C@@H](O)C4(F)F)c(=O)n3)cc2c1`
Output line: 5950

Input line: What value of AUC(0-t) has been reported for the following molecule? `Nc1ccn([C@@H]2O[C@H](CO)[C@@H](O)C2(F)F)c(=O)n1`
Output line: 5.37

* * *

Experiment: Metabolic stability in liver hepatocytes, dog
Assay type: in vitro ADME
Measurement Context: negative value indicates compound is stable, read-out: t1/2 mean ± SE
Observation Type: half-life (h)
# unit: h | format: bare number

Input line: What value of half-life has been reported for the following compound? `COc1cc(OC)c2oc(COC(=O)Nc3ccn([C@@H]4O[C@H](CO)[C@@H](O)C4(F)F)c(=O)n3)cc2c1`
Output line: 2.67

* * *

Experiment: Plasma PK of Int 3-3 in CD-1 mice (study c)
Type: in vivo
Measurement Context: mouse, after iv Int 3-3 8.8 mg/kg, read-out: Cmax
Observation Type: Cmax (ng/mL)
# unit: ng/mL | format: bare number

Input line: What value of Cmax has been reported for the following molecule? `Nc1ccn([C@@H]2O[C@H](CO)[C@@H](O)C2(F)F)c(=O)n1`
Output line: 73.4

* * *

Experiment: Int 1-4 and gemcitabine comparative PK in male cynomolgus monkey (study g)
Type: in vivo
Measurement Context: plasma, male cynomolgus monkey, after iv Int 1-4 5 mg/kg (study g)
Observation Type: clearance (mL/min/kg)
# unit: mL/min/kg | format: bare number

Input line: What value of clearance has been reported for the following compound? COc1cc(OC)c2oc(COC(=O)Nc3ccn([C@@H]4O[C@H](CO)[C@@H](O)C4(F)F)c(=O)n3)cc2c1 [Int 1-4]
Output line: 14.6

* * *

Experiment: Comparative plasma PK of Compound 1 versus Int 1-4 in male CD-1 mice (study b)
Assay type: in vivo
Measurement Context: male, CD-1, mouse, iv, 23.2 mg/kg, after iv Compound 1 23.2 mg/kg
Structures can show the parent of a compound that is named as a salt.
Observation Type: AUC(0-t) (ng·h/mL)
# unit: ng·h/mL | format: bare number

# example entries with known answers
Input line: What value of AUC(0-t) has been reported for the following molecule? COc1cc(OC)c2oc(COC(=O)Nc3ccn([C@@H]4O[C@H](COP(=O)(O)O)[C@@H](O)C4(F)F)c(=O)n3)cc2c1 [Compound 1, ammonium salt]
Output line: 103

Input line: What value of AUC(0-t) has been reported for the following molecule? Nc1ccn([C@@H]2O[C@H](CO)[C@@H](O)C2(F)F)c(=O)n1 [Gemcitabine, gemcitabine]
Output line: 202

Next:
Input line: What value of AUC(0-t) has been reported for the following molecule? COc1cc(OC)c2oc(COC(=O)Nc3ccn([C@@H]4O[C@H](CO)[C@@H](O)C4(F)F)c(=O)n3)cc2c1 [Int 1-4]
Output line: 6370

* * *

Experiment: Compound 1 and gemcitabine plasma PK in the male cynomolgus monkey (study h)
Format: in vivo
Measurement Context: plasma, after iv Compound 1 5 mg/kg, read-out: MRT0-inf
Experimental: Objectives: to compare the plasma pharmacokinetics and stability of the Compound 1 with Int 1-4 and in plasma following a single intravenous infusion administration of Compound 1 at 5 mg/kg and 10 mg/kg with equimolar gemcitabine at 2.28 mg/kg in male cynomolgous monkeys. PK measurements: compare PK parameters C0, CL, Vdss, Cmax, tmax, t1/2, AUC(0-t), AUC(0-inf), MRT(0-t), MRT(0-inf) for Compound 1 and Int 1-4 with gemcitabine.
Structures can show the parent of a compound that is named as a salt.
Measured MRT inf of individual entries
Kindly report the value followed by its unit.

# example entries with known answers
Input line: What value of MRT inf has been reported for the following compound? Nc1ccn([C@@H]2O[C@H](CO)[C@@H](O)C2(F)F)c(=O)n1 [Gemcitabine, gemcitabine]
Output line: 13.8 min

Input line: What value of MRT inf has been reported for the following compound? COc1cc(OC)c2oc(COC(=O)Nc3ccn([C@@H]4O[C@H](COP(=O)(O)O)[C@@H](O)C4(F)F)c(=O)n3)cc2c1 [Compound 1, ammonium salt]
Output line: 0.6 min

Okay, now this compound:
Input line: What value of MRT inf has been reported for the following compound? COc1cc(OC)c2oc(COC(=O)Nc3ccn([C@@H]4O[C@H](CO)[C@@H](O)C4(F)F)c(=O)n3)cc2c1 [Int 1-4]
Output line: 22.2 min

* * *

Experiment: Int 1-4 dog plasma PK (study j)
Assay type: in vivo
Measurement Context: male beagle dog, after iv Int 1-4 10 mg/kg (study j), read-out: AUC0-inf
Observation Type: AUC(0-inf) (ng·h/mL)
# unit: ng·h/mL | format: bare number

Input line: What value of AUC(0-inf) has been reported for the following compound? COc1cc(OC)c2oc(COC(=O)Nc3ccn([C@@H]4O[C@H](CO)[C@@H](O)C4(F)F)c(=O)n3)cc2c1 [Int 1-4]
Output line: 4740

Next:
Input line: What value of AUC(0-inf) has been reported for the following compound? Nc1ccn([C@@H]2O[C@H](CO)[C@@H](O)C2(F)F)c(=O)n1 [Gemcitabine, gemcitabine]
Output line: 6180

* * *

Measured microsomal CLint of individual entries
Experiment: Rat liver S9 stability
Type: in vitro ADME
Measurement Context: rat, liver S9, rat liver S9; read-out: CLint Mean ± SE
# unit: µL/min/mg | format: bare number

Input line: What value of microsomal CLint has been reported for the following compound? COc1cc(OC)c2oc(COC(=O)Nc3ccn([C@@H]4O[C@H](CO)[C@@H](O)C4(F)F)c(=O)n3)cc2c1 [Int 1-4]
Output line: 14.3

Okay, now this compound:
Input line: What value of microsomal CLint has been reported for the following compound? COc1cc2ccc(=O)oc2cc1O [Scopoletin, reference compound]
Output line: 12.5

* * *

Experiment: Plasma PK of Int 3-3 in CD-1 mice (study c)
Format: in vivo
Measurement Context: mouse, after iv Int 3-3 8.8 mg/kg, read-out: Tmax
Experimental: Objectives: to determine the plasma pharmacokinetics of Int 3-3 following a single intravenous infusion of Int 3-3 at 8.83 mg/kg in CD-1 mice PK measurements: compare PK parameters C0, CL, Vdss, Cmax, tmax, t1/2, AUC(0-t), AUC(0-inf), MRT(0-t), MRT(0-inf) for Int 3-3.
Observation Type: Tmax (min)
# unit: min | format: bare number

Input line: What value of Tmax has been reported for the following compound? Nc1ccn([C@@H]2O[C@H](CO)[C@@H](O)C2(F)F)c(=O)n1 [Gemcitabine, gemcitabine]
Output line: 3.67

* * *

Experiment: CD-1 mouse plasma stability
Type: in vitro ADME
Measurement Context: read-out: t1/2 (converted)
Observation Type: half-life at 3 μM

Input line: What value of half-life at 3 μM has been reported for the following molecule? `COc1cc(OC)c2oc(COC(=O)Nc3ccn([C@@H]4O[C@H](CO)[C@@H](O)C4(F)F)c(=O)n3)cc2c1`
Output line: ~13 h

* * *

Experiment: Plasma PK of Int 3-3 in CD-1 mice (study c)
Type: in vivo
Measurement Context: mouse, after iv Int 3-3 8.8 mg/kg, read-out: Vdss
Procedure: Objectives: to determine the plasma pharmacokinetics of Int 3-3 following a single intravenous infusion of Int 3-3 at 8.83 mg/kg in CD-1 mice PK measurements: compare PK parameters C0, CL, Vdss, Cmax, tmax, t1/2, AUC(0-t), AUC(0-inf), MRT(0-t), MRT(0-inf) for Int 3-3.
Observation Type: Vd (L/kg)
# unit: L/kg | format: bare number

Input line: What value of Vd has been reported for the following compound? [2H]C([2H])([2H])Oc1cc(OC([2H])([2H])[2H])c2oc(COC(=O)Nc3ccn([C@@H]4O[C@H](CO)[C@@H](O)C4(F)F)c(=O)n3)cc2c1 [Int 3-3]
Output line: 1.83

* * *

Experiment: Comparative dog plasma PK of Int 1-4 versus gemcitabine (study k)
Format: in vivo
Measurement Context: male beagle dog, after iv Int 1-4 10 mg/kg (study k), read-out: MRT0-last
Observation Type: MRT last (h)
# unit: h | format: bare number

Input line: What value of MRT last has been reported for the following molecule? Nc1ccn([C@@H]2O[C@H](CO)[C@@H](O)C2(F)F)c(=O)n1 [Gemcitabine, gemcitabine]
Output line: 2.16

Okay, now this molecule:
Input line: What value of MRT last has been reported for the following molecule? COc1cc(OC)c2oc(COC(=O)Nc3ccn([C@@H]4O[C@H](CO)[C@@H](O)C4(F)F)c(=O)n3)cc2c1 [Int 1-4]
Output line: 0.22

The reported numbers originate from patent US11760773B2.
